meta.source: paper PMC6383948

Give measured MRC5 pTC50 for each item. Keep answers brief.
system: MRC5-SV2 cell line; test: Cytotoxicity assay in MRC5 (resazurin, 48 h); assay type: cell-based, human; conditions: MRC5 toxicity
Marks after values point to notes of the source that are not given here.

Record MRC5 pTC50 for all entries; do not skip any.
1. Cc1ccc2c(c1C)/C(=N/Nc1ccc(S(N)(=O)=O)cc1)C(=O)N2
2. NS(=O)(=O)c1ccc(NN=C2C(=O)Nc3cc4c(cc32)NCC4)cc1
3. CC(C)=Cc1cccc2c1/C(=N/Nc1ccc(S(=O)(=O)N(C)C)cc1)C(=O)N2
4. O=C1Nc2ccccc2/C1=N/Nc1cc(Cl)cc(Cl)c1
5. CN(C)S(=O)(=O)c1ccc(N/N=C2\C(=O)Nc3ccccc32)cc1
6. NS(=O)(=O)c1ccc(N/N=C2\C(=O)Nc3cccc(CC4CCC4)c32)cc1

Output:
["<5.0^b", "<5.0^b", "<4.3", "<4.3", "<4.3", "<5.0^b"]

Record MRC5 pTC50 for all entries; do not skip any.
1. CC(C)Cc1cccc2c1/C(=N/Nc1ccc(S(N)(=O)=O)cc1)C(=O)N2
2. Cc1ccc2c3c(ccc2n1)NC(=O)/C3=N\Nc1ccc(S(N)(=O)=O)cc1
3. NC(=O)c1cccc2c1/C(=N/Nc1ccc(S(N)(=O)=O)cc1)C(=O)N2

Output:
["<5.0^b", "<5.0^b", "<5.0^b"]
